target: KRas^G12A (Homo sapiens, UniProt P01116, G12A); construct: […]; biotin (biotinylated); purchased Accelegan Inc; assay: KRas binding assay (TR-FRET displacement of Cy5 labelled tracer)
Sequence (P01116 1-169 isoform P01116-2 G12A): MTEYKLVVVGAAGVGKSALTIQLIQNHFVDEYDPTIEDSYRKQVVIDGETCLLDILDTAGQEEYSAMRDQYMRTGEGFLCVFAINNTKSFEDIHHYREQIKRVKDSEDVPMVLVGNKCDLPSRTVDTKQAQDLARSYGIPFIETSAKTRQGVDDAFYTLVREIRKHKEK
Give measured pIC50 for each item. Keep answers brief.
// pIC50 here means minus log10 of the molar concentration (mol/L)

Query: Give recorded pIC50 with KRas^G12A (Homo sapiens, UniProt P01116, G12A) for the following molecule: CCc1cccc2cccc(N3CCc4c(nc(OCC56CCCN5CCC6)nc4NC4CCNC(=O)C4)C3)c12 (centres unmarked) [Example 153]
Response: 5.14

Query: Give recorded pIC50 with KRas^G12A (Homo sapiens, UniProt P01116, G12A) for the following molecule: CCc1cccc2cccc(N3CCc4c(nc(OCC56CCCN5CCC6)nc4N4CCCC(c5nc(=O)[nH][nH]5)C4)C3)c12 (centres unmarked) [Example 104]
Response: 6.12

Query: Give recorded pIC50 with KRas^G12A (Homo sapiens, UniProt P01116, G12A) for the following molecule: CCc1cccc2cccc(N3CCc4c(nc(OCC56CCCN5CCC6)nc4NCCS(=O)(=O)N=S(C)(C)=O)C3)c12 [Example 165]
Response: 5.06

Query: Give recorded pIC50 with KRas^G12A (Homo sapiens, UniProt P01116, G12A) for the following molecule: CCc1cccc2cccc(N3CCc4c(nc(OCC56CCCN5CCC6)nc4N4CCOCC(n5cccn5)C4)C3)c12 (centres unmarked) [Example 9]
Response: 6.89

Query: Give recorded pIC50 with KRas^G12A (Homo sapiens, UniProt P01116, G12A) for the following molecule: CCc1cccc2cccc(N3CCc4c(nc(OCC56CCCN5CCC6)nc4N4CCCC(c5ccn[nH]5)C4)C3)c12 (centres unmarked) [Example 115]
Response: 5.96

Query: Give recorded pIC50 with KRas^G12A (Homo sapiens, UniProt P01116, G12A) for the following molecule: CCc1cccc2cccc(N3CCc4c(nc(OCC56CCCN5CCC6)nc4N4CCCC(C(C)O)C4)C3)c12 (centres unmarked) [Example 131]
Response: 5.92

Query: Give recorded pIC50 with KRas^G12A (Homo sapiens, UniProt P01116, G12A) for the following molecule: CCc1c(F)ccc2cc(O)cc(N3CCc4c(nc(OC[C@@]56CCCN5C[C@H](F)C6)nc4N4CCCC(c5ncn[nH]5)C4)C3)c12 (some centres unmarked) [Example 19]
Response: 8.40

Query: Give recorded pIC50 with KRas^G12A (Homo sapiens, UniProt P01116, G12A) for the following molecule: CCc1cccc2cccc(N3CCc4c(nc(OCC56CCCN5CCC6)nc4N4CCCC(c5nc(C)c(C)[nH]5)C4)C3)c12 (centres unmarked) [Example 120]
Response: 5.81

Query: Give recorded pIC50 with KRas^G12A (Homo sapiens, UniProt P01116, G12A) for the following molecule: CCc1cccc2cccc(N3CCc4c(nc(OCC56CCCN5CCC6)nc4NCc4nnc(CSC)[nH]4)C3)c12 [Example 161]
Response: 4.66

Query: Give recorded pIC50 with KRas^G12A (Homo sapiens, UniProt P01116, G12A) for the following molecule: CCc1cccc2cccc(N3CCc4c(nc(OCC56CCCN5CCC6)nc4N4CCCC(c5nc(C)no5)C4)C3)c12 (centres unmarked) [Example 162]
Response: 5.28

Query: Give recorded pIC50 with KRas^G12A (Homo sapiens, UniProt P01116, G12A) for the following molecule: CCc1cccc2cccc(N3CCc4c(nc(OCC56CCCN5CCC6)nc4N4CCCC(c5ccno5)C4)C3)c12 (centres unmarked) [Example 99]
Response: 5.90

Query: Give recorded pIC50 with KRas^G12A (Homo sapiens, UniProt P01116, G12A) for the following molecule: CCc1cccc2cccc(N3CCc4c(nc(OCC56CCCN5CCC6)nc4N4CCCC(c5nc(N)n(C)n5)C4)C3)c12 (centres unmarked) [Example 84]
Response: 6.67

Query: Give recorded pIC50 with KRas^G12A (Homo sapiens, UniProt P01116, G12A) for the following molecule: CCc1cccc2cccc(N3CCc4c(nc(OCC56CCCN5CCC6)nc4N4CCCC(c5n[nH]c(C)n5)C4)C3)c12 (centres unmarked) [Example 93]
Response: 6.37
